Measured values drawn from patent US20250051443A1 for this set.

Overview of recorded % max ref. OKT3 (dTomato activation) for various binders
Biological target: human CD3 (human, UniProt P07766 23-207; P09693 23-182; P04234 22-171)
Assay: cell-based or functional assay
Provide only the numeric value, understood in %.

Example entries and their recorded answers appear below.
* F282-2D5 (antibody, V domains shown, also called F282-2D5-2) VH: QVQLQQPGTELVKPGASVKLSCKASGYTFTSYWMHWVKQRPGQGLEWIGNINPSNGGTNYNENFKTKATLTVDKSSSTAYMQLSSLTSEDSAVYYCARDRSGQYYFDYWGQGTTLTVSS VL: DIVMSQSPSSLAVSAGEKVTMSCKSSQSLLNSRTRKNYLAWYQQKPGQSPKLLIYWASTRESGVPDRFTGSGSGTDFTLTISSVQAEDLAVYYCIQSYHLRTFGGGTILEIK | 98
* F332-8F7 (antibody, mouse IgG2a, V domains shown, also called F332-8F7-3) VH: QVQLQQPGAELGKPGTSVKLSCKASGYTFTSYWIHWVKQRPGQGLEWIGNINPNSGSTNYNEKFKNKATLTVDKSSSTASMQLSTLTSEDSAVYYCTRDISGQYYFDYWGQGTTLTVSS VL: DIVMSQSPSSLAVSTGGEVTMSCKSSQSLLNSRTRKNYLAWYQQKPGQSPKLLIYWASTRESGVPDRFTGSGSGTDFTLTISSVQAEDLAVYYCIQSYSLRTFGGGTKLGIK | 80
* F332-12F6 (antibody, mouse IgG2a, V domains shown, also called F332-12F6-2) VH: QVQLQQPGAELGKPGTSVKLSCKASGYTFTSYWIHWVKQRPGQGLEWIGNINPNSGSTNYNEKFKSKATLTVDKSSSTAYMQLSTLTSEDSAVYYCTRDISGQYYFDYWGQGTTLTVSS VL: DIVMSQSPSSLAVSAGEKVTMSCKSSQSLLNSRTRKSYLAWYQQKPGQSPKLLIYWASTRESGVPDRFTGSGSGTDFTLTISSVQAEDLAVYYCIQSYNLRTFGGGTKLEIK | 87
* F332-7C9 (antibody, mouse IgG2a, V domains shown, also called F332-7C9-2; F332-7C9 (5C7, 7D10)) VH: QVQLQQSGPELVKPGASVRISCKASGYTFTSHYLHWVKQRPGQGFEWIGWIYPGDGNTRYNEKFKDRATLTADKSSSTAYLHLSSLTSEDSAVYFCARDAGYYFDYWGQGTTLAVSS VL: DIVMSQSPSSLAVSAGEKVTMSCKSSQSLLNSRTRKNYLAWYQQKPGQSLKVLIYWASTRESGVPDRFTGSGSGTDFTLTISSVQAEDLAVYYCKQSYSLRTFGGGTKLEIK | 91

Alright, here's another binder for you.
Look up % max ref. OKT3 (dTomato activation) for this binder: F332-5D4 (antibody, mouse IgG2b, V domains shown, also called F332-5D4-2; F332-5D4 (5F8)) VH: QVQLQQPGAELGKPGTSVKLSCKASGYTFTSYWMHWVKQRPGQGLEWIGNINPNGGDSNYNEKFKSKATLTVDMSSSTAYMQLSTLTSEDSAVYYCTRDISGQYYFDFWGQGTSLTVFS VL: DILMSQSPSSLAVSAGEQVTMSCKSSQSLLNSRTRKNYLAWYQQKPGQSPKLLIFWASTRKSGVPDRFTGSGSGTYFTLTINSVQTEDLAVYYCTQSYSLRTFGGGTKLEIK 109
